In this section, each of the compounds is paired with its reported pEC50.
MEASURED ON: hSTING (Homo sapiens, UniProt Q86WV6, G230A/H232R/R293Q/R71H)
Construct: host or cells: THP1-Dual KO-IFNAR2 cells
Sequence (Q86WV6 whole entry R71H/G230A/H232R/R293Q): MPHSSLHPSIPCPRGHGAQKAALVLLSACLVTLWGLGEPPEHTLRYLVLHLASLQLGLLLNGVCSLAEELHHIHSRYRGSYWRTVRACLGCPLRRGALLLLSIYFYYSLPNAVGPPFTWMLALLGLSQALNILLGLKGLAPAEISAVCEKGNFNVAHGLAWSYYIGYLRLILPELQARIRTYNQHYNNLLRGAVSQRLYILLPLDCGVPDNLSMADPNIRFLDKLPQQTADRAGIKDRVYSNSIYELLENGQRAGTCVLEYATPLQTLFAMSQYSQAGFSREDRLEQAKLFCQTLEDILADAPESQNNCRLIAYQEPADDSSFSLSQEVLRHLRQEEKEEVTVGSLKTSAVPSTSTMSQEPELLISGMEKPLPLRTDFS
TEST PROTOCOL: STING reporter assay (luciferase) in THP1-Dual KO-IFNAR2 cells stimulated with 2′3′cGAMP
Assay type: cell-based
CONDITION DESCRIPTION: 15 μM 2′3′cGAMP, 24 h, numeric bounds
pEC50: −log10 of the molar value.

# annotated cases, reported pEC50 shown
- COMPOUND: "COc1ccc(CNC(=O)C(=O)Nc2c[nH]c3ccncc23)cc1Cl"
  MEASURED: "< 4.52"
- COMPOUND: "O=C(NCc1cccc(OC(F)(F)F)c1)C(=O)Nc1c[nH]c2cccnc12"
  MEASURED: "< 4.52"
- COMPOUND: "O=C(NCC1CCCC(F)(F)C1)C(=O)Nc1c[nH]c2ccncc12 (centres unmarked)"
  MEASURED: "< 4.52"
- COMPOUND: "O=C(NCC(F)(F)c1ccccc1)C(=O)Nc1c[nH]c2ccncc12"
  MEASURED: "< 4.52"

Continue with the compound presented below.
Form field, pEC50 with hSTING (Homo sapiens, UniProt Q86WV6, G230A/H232R/R293Q/R71H), item O=C(NCCOc1ccc(C(F)(F)F)cc1)C(=O)Nc1c[nH]c2cccnc12 : < 4.52

====

MEASURED ON: hSTING (Homo sapiens, UniProt Q86WV6, G230A/H232R/R293Q/R71H)
Construct: host or cells: THP1-Dual KO-IFNAR2 cells
TEST PROTOCOL: STING reporter assay (luciferase) in THP1-Dual KO-IFNAR2 cells stimulated with 2′3′cGAMP
Format: cell-based
CONDITION DESCRIPTION: 15 μM 2′3′cGAMP, 24 h, class symbols
Method: STING pathway activation by the compounds described herein was measured using THP1-Dual™ cells (KO-IFNAR2). […] 2 mL of solution A and 2 ml Solution B was mixed and incubated for 20 min at room temperature (RT). […] Luciferase reporter activity was then measured. EC50 values were calculated by using standard methods known in the art. […] Luciferase reporter activity was then measured. EC50 values were calculated by using standard methods known in the art.
pEC50: −log10 of the molar value.
In this section, each of the compounds is paired with its reported pEC50.

# annotated cases, reported pEC50 shown
- COMPOUND: "Cc1c(NC(=O)C(=O)Nc2c[nH]c3ccncc23)cccc1C(F)(F)F"
  MEASURED ON: "hSTING (Homo sapiens, UniProt Q86WV6, G230A/H232R/R293Q/R71H)"
  pEC50: "5.30 to 6.00"
- COMPOUND: "Cc1ccc(CNC(=O)C(=O)Nc2c[nH]c3ccncc23)cc1C(F)(F)F"
  MEASURED ON: "hSTING (Homo sapiens, UniProt Q86WV6, G230A/H232R/R293Q/R71H)"
  pEC50: "6.00 to 6.70"
- COMPOUND: "Cc1cc(NC(=O)C(=O)Nc2c[nH]c3ncc(F)cc23)cc(C(F)(F)F)c1"
  MEASURED ON: "hSTING (Homo sapiens, UniProt Q86WV6, G230A/H232R/R293Q/R71H)"
  pEC50: "6.00 to 6.70"

Continue with the compound presented below.
pEC50 reading for O=C(NCc1ccc(-c2ccccc2C(F)(F)F)cc1)C(=O)Nc1c[nH]c2ccncc12 : 6.00 to 6.70

====

MEASURED ON: hSTING (Homo sapiens, UniProt Q86WV6, G230A/H232R/R293Q/R71H)
Construct: host or cells: THP1-Dual KO-IFNAR2 cells
TEST PROTOCOL: STING reporter assay (luciferase) in THP1-Dual KO-IFNAR2 cells stimulated with 2′3′cGAMP
Type: cell-based
CONDITION DESCRIPTION: 15 μM 2′3′cGAMP, 24 h, class symbols
RESULT TYPE: EC50

- MOLECULE: "Cc1cc(NC(=O)C(=O)Nc2c[nH]c3cccnc23)cc(C(F)(F)F)c1 [Compound 107]"
  MEASURED ON: "hSTING (Homo sapiens, UniProt Q86WV6, G230A/H232R/R293Q/R71H)"
  RESULT TYPE: "EC50"
  MEASURED: "0.2 to 1 µM"

EC50 reading for O=C(NCc1ccc(Cl)cc1C(F)(F)F)C(=O)Nc1c[nH]c2cccnc12 [Compound 140] : 1 to 5 µM

EC50 reading for COc1ccc(CNC(=O)C(=O)Nc2c[nH]c3cccnc23)cc1C(F)(F)F [Compound 144] : 1 to 5 µM

EC50 reading for CC(CNC(=O)C(=O)Nc1c[nH]c2cccnc12)Oc1ccc(C(F)(F)F)cc1 (centres unmarked) [Compound 137] : 5 to 100 µM

EC50 reading for O=C(NCc1ccccc1C(F)(F)F)C(=O)Nc1c[nH]c2ccncc12 [Compound 172] : 5 to 100 µM

EC50 reading for O=C(NCCOc1ccc(C(F)(F)F)cc1)C(=O)Nc1c[nH]c2ccncc12 [Compound 159] : 1 to 5 µM

EC50 reading for O=C(NCCC1CCC(F)(F)CC1)C(=O)Nc1c[nH]c2ccncc12 [Compound 122] : 5 to 100 µM

EC50 reading for O=C(NCc1ccc(Cl)c(OC(F)(F)F)c1)C(=O)Nc1c[nH]c2c(F)cncc12 [Compound 208] : 1 to 5 µM

EC50 reading for Cc1cc(NC(=O)C(=O)Nc2c[nH]c3ccncc23)cc(C(F)(F)F)c1 [Compound 115] : 0.2 to 1 µM

EC50 reading for O=C(NCCc1ncc(C(F)(F)F)cc1Cl)C(=O)Nc1c[nH]c2ccncc12 [Compound 166] : 5 to 100 µM

EC50 reading for O=C(NCCc1ccc(C(F)(F)F)cc1)C(=O)Nc1c[nH]c2ccncc12 [Compound 153] : 0.2 to 1 µM

====

In this section, each of the compounds is paired with its reported EC50.
MEASURED ON: hSTING (Homo sapiens, UniProt Q86WV6, G230A/H232R/R293Q/R71H)
Construct: host or cells: THP1-Dual KO-IFNAR2 cells
TEST PROTOCOL: STING reporter assay (luciferase) in THP1-Dual KO-IFNAR2 cells stimulated with 2′3′cGAMP
Type: cell-based
CONDITION DESCRIPTION: 15 μM 2′3′cGAMP, 24 h, class symbols

EC50 reading for O=C(NCC12CC3CC(CC(C3)C1)C2)C(=O)Nc1c[nH]c2ccncc12 : 1 to 5 µM

EC50 reading for Cc1ccc(CNC(=O)C(=O)Nc2c[nH]c3ccc(-c4cnn(C)c4)nc23)cc1C(F)(F)F : 1 to 5 µM

EC50 reading for O=C(NCc1ccc(-c2ccccc2C(F)(F)F)cc1)C(=O)Nc1c[nH]c2cccnc12 : 1 to 5 µM

EC50 reading for Cc1cc(F)c(Cl)cc1NC(=O)C(=O)Nc1c[nH]c2ccncc12 : 1 to 5 µM

EC50 reading for Cc1ccc(CNC(=O)C(=O)Nc2c[nH]c3ccc(Br)nc23)cc1C(F)(F)F : 0.2 to 1 µM

EC50 reading for O=C(Nc1c[nH]c2ncc(F)cc12)C(=O)N[C@H]1CCC2(CCCC2)C1 (single isomer, unassigned) : 5 to 100 µM

EC50 reading for C[C@@H](NC(=O)C(=O)Nc1c[nH]c2c(F)cncc12)c1ccc(C(F)(F)F)cc1 : 1 to 5 µM

EC50 reading for O=C(Nc1c[nH]c2ncc(F)cc12)C(=O)N[C@@H]1CCC2(CCCC2)C1 (single isomer, unassigned) : 5 to 100 µM

====

MEASURED ON: hSTING (Homo sapiens, UniProt Q86WV6, G230A/H232R/R293Q/R71H)
Construct: host or cells: THP1-Dual KO-IFNAR2 cells
TEST PROTOCOL: STING reporter assay (luciferase) in THP1-Dual KO-IFNAR2 cells stimulated with 2′3′cGAMP
Type: cell-based
CONDITION DESCRIPTION: 15 μM 2′3′cGAMP, 24 h, class symbols
pEC50: −log10 of the molar value.
RESULT TYPE: pEC50

# annotated cases, reported pEC50 shown
- COMPOUND: "O=C(Nc1c[nH]c2ncc(F)cc12)C(=O)NC1CCC2(CCCC2)C1 (centres unmarked) [Compound 203]"
  MEASURED ON: "hSTING (Homo sapiens, UniProt Q86WV6, G230A/H232R/R293Q/R71H)"
  pEC50: "4.00 to 5.30"
- COMPOUND: "CC(C)n1cc(-c2ccc3[nH]cc(NC(=O)C(=O)Nc4ccc(C5CCCCC5)cn4)c3n2)cn1 [Compound 206]"
  MEASURED ON: "hSTING (Homo sapiens, UniProt Q86WV6, G230A/H232R/R293Q/R71H)"
  pEC50: "5.30 to 6.00"
- COMPOUND: "O=C(Nc1ccc(C2CCCCC2)cn1)C(=O)Nc1c[nH]c2ccc(Br)nc12 [Compound 210]"
  MEASURED ON: "hSTING (Homo sapiens, UniProt Q86WV6, G230A/H232R/R293Q/R71H)"
  pEC50: "6.00 to 6.70"

Continue with the compound presented below.
pEC50 reading for O=C(Nc1ccc(C(F)(F)F)c(Cl)c1)C(=O)Nc1c[nH]c2cccnc12 [Compound 217] : 5.30 to 6.00
